MEASURED TARGET: Zap1 (UniProt P47043)
Sequence: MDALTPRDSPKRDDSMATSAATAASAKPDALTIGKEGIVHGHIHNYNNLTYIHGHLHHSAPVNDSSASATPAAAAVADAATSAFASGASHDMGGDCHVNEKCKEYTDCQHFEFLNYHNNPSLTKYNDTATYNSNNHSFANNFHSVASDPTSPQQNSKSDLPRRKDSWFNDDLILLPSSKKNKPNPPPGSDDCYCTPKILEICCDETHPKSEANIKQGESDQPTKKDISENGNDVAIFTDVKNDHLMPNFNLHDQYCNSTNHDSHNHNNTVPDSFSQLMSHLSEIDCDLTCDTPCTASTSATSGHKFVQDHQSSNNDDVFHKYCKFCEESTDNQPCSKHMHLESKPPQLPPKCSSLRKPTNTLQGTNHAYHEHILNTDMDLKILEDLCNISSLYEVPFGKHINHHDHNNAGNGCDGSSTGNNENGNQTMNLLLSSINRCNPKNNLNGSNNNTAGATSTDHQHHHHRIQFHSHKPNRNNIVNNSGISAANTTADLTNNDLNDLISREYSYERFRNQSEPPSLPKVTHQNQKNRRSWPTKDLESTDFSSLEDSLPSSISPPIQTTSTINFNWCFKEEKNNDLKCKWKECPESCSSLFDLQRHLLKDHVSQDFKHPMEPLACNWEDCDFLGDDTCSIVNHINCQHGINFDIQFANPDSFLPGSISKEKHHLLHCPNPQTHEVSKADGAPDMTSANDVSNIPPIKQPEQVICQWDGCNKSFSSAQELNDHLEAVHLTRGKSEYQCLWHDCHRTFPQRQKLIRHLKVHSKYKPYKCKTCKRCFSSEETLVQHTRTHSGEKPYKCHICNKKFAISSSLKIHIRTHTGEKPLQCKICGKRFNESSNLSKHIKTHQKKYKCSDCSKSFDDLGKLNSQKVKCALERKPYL
ASSAY PROCEDURE: PBM E-score (8-mer binding enrichment) (E-score (-0.5 to 0.5)); higher = stronger / more preferred TF binding
MEASUREMENT CONDITIONS: protein concentration: 200 nM; construct: GST-full length
Over roughly 33,000 sequences, “E-score (-0.5 to 0.5)” has its median near -0.021; the highest 2% begin near 0.32. The entries come from a sample that favours the highest values as a whole.
READOUT LABEL: PBM E-score
Respond with the number and no other words.

ACAAAAAA :: 0.317
ACCTGCCG :: -0.0789
CCAAAACC :: 0.331
ACCATTCT :: 0.0676
AACACCTA :: 0.0163

Write PBM E-score of AGTGACCA ; system used: Zap1 (UniProt P47043)
0.247

Write PBM E-score of GAAACCGC ; system used: Zap1 (UniProt P47043)
0.15

Write PBM E-score of TAAGGGTA ; system used: Zap1 (UniProt P47043)
0.433

Write PBM E-score of GAAGGGTA ; system used: Zap1 (UniProt P47043)
0.421

Write PBM E-score of CAGGTTAC ; system used: Zap1 (UniProt P47043)
0.424

Write PBM E-score of CAAGATGC ; system used: Zap1 (UniProt P47043)
-0.0715

Write PBM E-score of ACCTGAAT ; system used: Zap1 (UniProt P47043)
0.136

Write PBM E-score of AAGGGGTA ; system used: Zap1 (UniProt P47043)
0.334

Write PBM E-score of CGTCTAGC ; system used: Zap1 (UniProt P47043)
-0.21

Write PBM E-score of CCAGGTAA ; system used: Zap1 (UniProt P47043)
0.041

Write PBM E-score of CAAAAACC ; system used: Zap1 (UniProt P47043)
0.302

Write PBM E-score of TCCAAGAA ; system used: Zap1 (UniProt P47043)
-0.0864

Write PBM E-score of ACCCCCAT ; system used: Zap1 (UniProt P47043)
0.0539

Write PBM E-score of ACAACCAG ; system used: Zap1 (UniProt P47043)
0.23

Write PBM E-score of CACCAGTG ; system used: Zap1 (UniProt P47043)
-0.0732

Write PBM E-score of ACACTTCT ; system used: Zap1 (UniProt P47043)
-0.0698

Write PBM E-score of CTTGACCC ; system used: Zap1 (UniProt P47043)
0.311

Write PBM E-score of ACGCGAAG ; system used: Zap1 (UniProt P47043)
0.0536
